system: PC-3; experiment: Antiproliferative activity against human PC3 cells after 96 hrs by BrdU cell proliferation ELISA; format: functional, cell-based; settings: PC-3, 96 h
Measurement name: IC50

Query: What value of measured IC50 is listed for O=C(O)c1ccc(Nc2ncc3c(n2)-c2ccc(Cl)cc2C(c2c(F)cccc2F)=NC3)cc1 ?
Response: 790 nM

----------
test system: MDA-MB-231; assay: Antiproliferative activity against human MDAMB231 cells after 96 hrs by BrdU cell proliferation ELISA; format: functional, cell-based; settings: MDA-MB-231, 96 h
Measurement name: IC50 (nM)
Could you give me the number in nM? Just the number is fine.

Query: Please state recorded IC50 (tested on MDA-MB-231) of O=C(O)c1ccc(Nc2ncc3c(n2)-c2ccc(Cl)cc2C(c2c(F)cccc2F)=NC3)cc1
Response: 740
